recordedMetric: melting point (°C)

[[record]]
compound = "Cc1cc2cc(CN3CCC(CC(=O)N4CCCCC4)CC3)cnc2cc1NC(=O)c1ccc(-c2ccc(F)cc2)cc1 [Example 265]"
quantityunit = "°C"
numericvalue = 216

[[record]]
compound = "O=C(Nc1ccc2cc(CN3CCCCCC3)cnc2c1)c1ccc(-c2ccc(F)cc2)cc1 [Example 29]"
quantityunit = "°C"
numericvalue = 202


* * *

Below is a list of entries, each paired with its recorded melting point value.

[[record]]
querysmiles = "O=C(Nc1ccc2cc(CN3CCCC3)cnc2c1)c1ccc(-c2ccccc2)cc1"
result = "192 to 194 °C"

[[record]]
querysmiles = "O=C(Nc1cc2ncc(CN3CCCC3)cc2cc1F)c1ccc(-c2ccc(OC(F)(F)F)cc2)cc1"
result = "184 to 187 °C"

[[record]]
querysmiles = "Cc1cc2cc(CN3CCCCCC3)cnc2cc1NC(=O)c1ccc(-c2ccccc2)cc1F"
result = "151 °C"

[[record]]
querysmiles = "Cc1ccc(-c2ccc(C(=O)Nc3ccc4cc(CN5CCCCCC5)cnc4c3)cc2)cc1"
result = "209 °C"

[[record]]
querysmiles = "Cc1cc2cc(CN3CCC(CCC(=O)N(C)C)CC3)cnc2cc1NC(=O)c1ccc(-c2ccc(F)cc2)cc1"
result = "193 to 196 °C"


Form field: reported melting point of `CSc1ccc(-c2ccc(C(=O)Nc3ccc4cc(CN5CCCC5)cnc4c3C)c(F)c2)cc1` 189 to 190 °C

And the next one, `COc1ccc(COc2ccc(C(=O)Nc3ccc4cc(CN5CCCC5)cnc4c3C)cc2)cc1` ? 192 to 193 °C

And the next one, `COc1ccc(-c2ccc(C(=O)Nc3ccc4cc(CN5CCCC5)cnc4c3C)cc2F)cc1` ? 174 to 176 °C

* * *

Below is a list of entries, each paired with its recorded melting point value.

Study these solved cases before continuing.
[[record]]
compound = "Cc1cccc(-c2ccc(C(=O)Nc3ccc4cc(CN5CCCC5)cnc4c3C)cc2)c1"
recordedmetric = "melting point"
result = "151 to 152 °C"

[[record]]
compound = "Cc1c(NC(=O)c2ccc(-c3ccc4c(c3)OCO4)cc2F)ccc2cc(CN3CCCC3)cnc12 (hydrate or solvate)"
recordedmetric = "melting point"
result = "181 to 182 °C"

[[record]]
compound = "Cc1c(NC(=O)c2ccc(C3CCCCC3)cc2)ccc2cc(CN3CCCC3)cnc12"
recordedmetric = "melting point"
result = "178 to 179 °C"

[[record]]
compound = "CC(=O)c1ccc(-c2ccc(C(=O)Nc3ccc4cc(CN5CCCC5)cnc4c3C)cc2)s1 (hydrate or solvate)"
recordedmetric = "melting point"
result = "194 to 195 °C"

[[record]]
compound = "O=C(Nc1ccc2cc(CN3CCCC3)cnc2c1)N1CCC(c2ccc(F)cc2)CC1"
recordedmetric = "melting point"
result = "239 to 241 °C"


Form field: reported melting point of `Cc1cc2cc(CN3CCCCCC3)cnc2cc1NC(=O)c1ccc(-c2ccc(F)cc2)cc1` 170 to 174 °C

And the next one, `Cc1cc2cc(CN3CCCCCC3)cnc2cc1NC(=O)c1ccc(-c2ccc(Cl)s2)cc1` ? 180 °C

And the next one, `Cc1cc2cc(CN3CCCC3)cnc2cc1NC(=O)c1ccc(-c2ccc(Cl)cc2)c(F)c1` ? 181 to 185 °C

* * *

recordedMetric: melting point

Study these solved cases before continuing.
[[record]]
compound = "Cc1c(NC(=O)c2ccc(OCc3ccc(F)cc3)cc2)ccc2cc(CN3CCCCC3)cnc12"
result = "159 to 160 °C"

[[record]]
compound = "CCNC(=O)CC1CCN(Cc2cnc3c(C)c(NC(=O)c4ccc(-c5ccc(F)cc5)cc4)ccc3c2)CC1"
result = "243 to 245 °C"

[[record]]
compound = "COc1c(NC(=O)c2ccc(-c3ccc(F)cc3)cc2)ccc2cc(CN3CCCC3)cnc12"
result = "142 to 144 °C"

[[record]]
compound = "O=C(Nc1ccc2cc(CN3CCCCCC3)cnc2c1)c1ccc(-c2ccccc2)cc1"
result = "205 °C (dec.)"

[[record]]
compound = "Cc1c(NC(=O)c2ccc(-c3ccc(Cl)cc3)cc2)ccc2cc(CN3CCCC3)cnc12"
result = "227 to 229 °C"


Form field: reported melting point of `Cc1c(NC(=O)c2ccc(-c3ccccc3F)c(F)c2)ccc2cc(CN3CCCC3)cnc12` 139 to 140 °C

And the next one, Cc1c(NC(=O)c2ccc(-c3ccc(Cl)cc3Cl)cc2F)ccc2cc(CN3CCCC3)cnc12 (hydrate or solvate) ? 162 to 163 °C

And the next one, `COc1ccc(-c2ccc(C(=O)Nc3ccc4cc(CN5CCCC5)cnc4c3C)cc2)cc1` ? 210 to 213 °C

* * *

Below is a list of entries, each paired with its recorded melting point value.

Study these solved cases before continuing.
[[record]]
compound = "COc1ccc(-c2ccc(C(=O)Nc3cc4ncc(CN5CCCC5)cc4cc3F)cc2)cc1 [Example 53]"
result = "184 to 186 °C"

[[record]]
compound = "COc1ccc(-c2ccc(C(=O)Nc3ccc4cc(CN5CCCCCC5)cnc4c3C)c(F)c2)cc1 [Example 185]"
result = "171 to 172 °C"

[[record]]
compound = "Cc1c(NC(=O)c2ccc(-c3cc4ccccc4o3)cc2F)ccc2cc(CN3CCCC3)cnc12 [Example 142]"
result = "202 to 203 °C"

[[record]]
compound = "Cc1ccc(-c2ccc(C(=O)Nc3ccc4cc(CN5CCCCCC5)cnc4c3)cn2)cc1 [Example 33]"
result = "237 °C (dec.)"

[[record]]
compound = "Cc1ccc(-c2ccc(C(=O)Nc3ccc4cc(CN5CCCC5)cnc4c3)cn2)cc1 [Example 10]"
result = "226 to 228 °C"

[[record]]
compound = "O=C(Nc1ccc2cc(CN3CCCC3)cnc2c1)c1ccc(-c2ccc(Cl)cc2)cc1 [Example 6]"
result = "217 to 220 °C"

[[record]]
compound = "COc1ccc(-c2ccc(C(=O)Nc3ccc4cc(CN5CCCC5)cnc4c3)cc2)cc1 [Example 3]"
result = "202 to 204 °C"


Field: next compound
Form field: reported melting point of Cc1cc2cc(CN3CCCC3)cnc2cc1NC(=O)c1ccc(-c2ccccc2)c(F)c1 [Example 232] 167 to 170 °C

* * *

Below is a list of entries, each paired with its recorded melting point value.

Form field: reported melting point of Cc1c(NC(=O)c2ccc(-c3ccccc3Cl)cc2)ccc2cc(CN3CCCC3)cnc12 (hydrate or solvate) 128 to 129 °C

And the next one, `CCNC(=O)CC1CCN(Cc2cnc3cc(NC(=O)c4ccc(-c5ccc(Cl)cc5)cc4)ccc3c2)CC1` ? 250 °C

And the next one, CSc1ccc(-c2ccc(C(=O)Nc3ccc4cc(CN5CCCC5)cnc4c3C)cc2)cc1 (hydrate or solvate) ? 206 to 208 °C

And the next one, `O=C(Nc1ccc2cc(CN3CCCC3)cnc2c1)c1ccc(-c2ccc(F)cc2)nc1` ? 218 to 220 °C

And the next one, `O=C(Nc1ccc2cc(CN3CCCCCC3)cnc2c1)N1CCC(c2ccc(Cl)cc2)CC1` ? 247 °C (dec.)

* * *

Below is a list of entries, each paired with its recorded melting point value.

Form field: reported melting point of `Cc1cc2cc(CN3CCCCC3)cnc2cc1NC(=O)c1ccc(-c2ccc(F)cc2)cc1` 185 to 188 °C

And the next one, `CN(C)Cc1cnc2cc(NC(=O)c3ccc(-c4ccc(Cl)cc4)cc3)ccc2c1` ? 236 to 238 °C

And the next one, `O=C(Nc1cc2ncc(CN3CCCC3)cc2cc1F)c1ccc(-c2ccc(F)cc2)cc1F` ? 200 to 202 °C

And the next one, `COc1ccc(-c2ccc(C(=O)Nc3cc4ncc(CN5CCCCCC5)cc4cc3C)c(F)c2)cc1` ? 168 °C

And the next one, `COc1ccc(C2CCN(C(=O)Nc3ccc4cc(CN5CCCC5)cnc4c3)CC2)cc1` ? 241 to 243 °C

And the next one, `COc1ccc(-c2ccc(C(=O)Nc3ccc4cc(CN5CCCCC5)cnc4c3C)c(F)c2)cc1` ? 191 to 192 °C

And the next one, Cc1c(NC(=O)c2ccc(-c3ccc4c(c3)OCCO4)cc2)ccc2cc(CN3CCCC3)cnc12 (hydrate or solvate) ? 187 to 188 °C

And the next one, `Cc1cc(-c2ccc(F)cc2)ccc1C(=O)Nc1ccc2cc(CN3CCCC3)cnc2c1C` ? 200 to 203 °C

* * *

Below is a list of entries, each paired with its recorded melting point value.

[[record]]
compound = "CCNC(=O)CCCC1CCN(Cc2cnc3c(C)c(NC(=O)c4ccc(-c5ccc(F)cc5)cc4)ccc3c2)CC1"
recordedmetric = "melting point"
result = "217 to 220 °C"

[[record]]
compound = "O=C(Nc1ccc2cc(CN3CCCC3)cnc2c1)c1ccc(-c2ccccc2)cc1F"
recordedmetric = "melting point"
result = "166 °C"

[[record]]
compound = "Cc1c(NC(=O)c2ccc(OCc3ccccc3)cc2)ccc2cc(CN3CCCCC3)cnc12"
recordedmetric = "melting point"
result = "186 to 187 °C"

[[record]]
compound = "CNC(=O)CCC1CCN(Cc2cnc3cc(NC(=O)c4ccc(-c5ccc(F)cc5)cc4)c(C)cc3c2)CC1"
recordedmetric = "melting point"
result = "207 to 211 °C"

[[record]]
compound = "Cc1c(NC(=O)c2ccc(-c3ccc(F)cc3)cc2)ccc2cc(CN3CCCCC3)cnc12"
recordedmetric = "melting point"
result = "188 to 190 °C"


Form field: reported melting point of `Cc1cc2cc(CN3CCCCCC3)cnc2cc1NC(=O)c1ccc(-c2ccc(Cl)cc2)cc1F` 209 °C

And the next one, Cc1c(NC(=O)c2ccc(-c3ccccc3)cc2F)ccc2cc(CN3CCCCCC3)cnc12 (hydrate or solvate) ? 151 to 153 °C

And the next one, Cc1c(NC(=O)c2ccc(-c3ccc4c(c3)OCO4)cc2)ccc2cc(CN3CCCC3)cnc12 (hydrate or solvate) ? 171 to 172 °C

And the next one, `COc1ccc(-c2ccc(C(=O)Nc3ccc4cc(CN5CCCC5)cnc4c3)c(F)c2)cc1` ? 174 °C

And the next one, `Cc1c(NC(=O)c2ccc(-c3ccccc3)cc2)ccc2cc(CN3CCCC3)cnc12` ? 184 to 186 °C

And the next one, `Cc1cc2cc(CN3CCC(CCC(N)=O)CC3)cnc2cc1NC(=O)c1ccc(-c2ccc(F)cc2)cc1` ? 223 to 227 °C

And the next one, `O=C(Nc1ccc2cc(CN3CCCC3)cnc2c1)c1ccc(-c2ccc(Cl)cc2)cc1F` ? 232 °C

And the next one, `O=C(Nc1ccc2cc(CN3CCC(CCO)CC3)cnc2c1)c1ccc(-c2ccc(Cl)cc2)cc1` ? 204 °C

And the next one, `Cc1c(NC(=O)c2ccc(-c3ccc(F)cc3)cc2)ccc2cc(CN3CCC3)cnc12` ? 153 to 155 °C

And the next one, `Cc1cc2cc(CN3CCCC3)cnc2cc1NC(=O)c1ccc(-c2ccc(F)cc2F)cc1` ? 158 to 160 °C

And the next one, `Cc1cc2cc(CN3CCCC3)cnc2cc1NC(=O)c1ccc(-c2ccc(Cl)cc2)cc1` ? 214 to 217 °C

And the next one, `Cc1c(NC(=O)c2ccc(-c3ccc4c(c3)CCO4)cc2)ccc2cc(CN3CCCC3)cnc12` ? 176 to 177 °C

And the next one, `CCN(CC)C(=O)CCCC1CCN(Cc2cnc3cc(NC(=O)c4ccc(-c5ccc(F)cc5)cc4)c(C)cc3c2)CC1` ? 181 °C

And the next one, `Cc1cc2cc(CN3CCC(C(=O)N(C)C)CC3)cnc2cc1NC(=O)c1ccc(-c2ccc(F)cc2)cc1` ? 229 °C

And the next one, `COc1cc2cc(CN3CCCCC3)cnc2cc1NC(=O)c1ccc(-c2ccc(Cl)cc2)cc1` ? 236 °C (dec.)
